Assay: LAP4-GFP expression modulators in yeast, confirmation, cell-based, cherry picks, flow cytometry, mother/daughter gates (AID 2271);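 note: ratio of sample to DMSO plate mean so 100% equals DMSO level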
Conditions: S. cerevisiae LAP4-GFP strain, 3 h, measured here: mother cell gate response, at 10 µM, stronger effect = higher value, 100 means same as DMSO control
property.measured: GFP response relative to DMSO (%)
One number for each entry, in %.

- chem.smiles: "COCc1nnc(NC(=O)c2ccc(S(=O)(=O)N(C)C3CCCCC3)cc2)o1"
  GFP response relative to DMSO, %: 104
- chem.smiles: "COc1ccc(CN2CCSc3sccc3C2=O)cc1"
  GFP response relative to DMSO, %: 112
- chem.smiles: "Cc1c(NC2=C(Cl)C(=O)N(c3ccccc3)C2=O)c(=O)n(-c2ccccc2)n1C"
  GFP response relative to DMSO, %: 99.5

Now for another entry.
What value of GFP response relative to DMSO has been reported for the following molecule? "Cc1ccc(C(=O)NNC(=S)NC(=O)c2ccco2)cc1"
121

----------
Experiment: modulators of CIT2-GFP expression in yeast, confirmation, S. cerevisiae, GFP fusion, cherry picks, mother/daughter gates (AID 2274)
Details: S. cerevisiae CIT2-GFP strain, flow cytometry, 3 h; measured here: mother cell gate; at 10 µM; stronger effect = higher value
For each entry below, report its GFP response, % of DMSO value.

A selection of reference data follows.
- compound: "CCOc1cc(-c2noc(-c3cccnc3)n2)ccc1OC"
  property.measured: "GFP response, % of DMSO"
  result: "106%"
- compound: "O=C(Oc1oc(-c2ccco2)nc1C=Nc1ccccc1)c1ccoc1"
  property.measured: "GFP response, % of DMSO"
  result: "91.5%"
- compound: "COc1cc(NC(=O)c2ccc(C)cc2)ccc1NC(=O)c1cc2ccccc2o1"
  property.measured: "GFP response, % of DMSO"
  result: "89.5%"

List reported GFP response, % of DMSO for each of these compounds:
1. Cc1ccc(/C=C/C(=O)c2ccccc(=O)c2O)c(C)c1
2. O=c1c2c(-c3cccs3)csc2ncn1/N=C/c1ccccn1
3. O=C(Nc1nc(-c2ccccn2)cs1)c1cc2ccccc2o1
4. COC(=O)c1ccc(N2C(=O)CC(Sc3n[nH]c(C)n3)C2=O)cc1 (centres undefined)

1: 96.8%; 2: 89.5%; 3: 91%; 4: 103%

List reported GFP response, % of DMSO for each of these compounds:
1. COc1ccc(C2CC(c3c(-c4ccccc4)c4cc(Cl)ccc4[nH]c3=O)=NN2S(C)(=O)=O)cc1 (centres undefined)
2. Cc1cc(O)c(C(=O)/C=C/c2ccc(C(C)C)cc2)c(=O)o1
3. CCN(CC)S(=O)(=O)c1cccc(C(=O)NCC(c2ccccc2)N(C)C)c1 (centres undefined)
4. COc1ccc(N2CCN(C(=O)c3ccccc3)CC2)c([N+](=O)[O-])c1
5. FC(F)(F)c1cc(-c2cccs2)nc2cc(-c3cccs3)nn12

["99.7%", "97.3%", "98%", "96.8%", "94.4%"]

List reported GFP response, % of DMSO for each of these compounds:
1. CCOC(=O)CNc1c(-c2ccc(O)cc2)nc2ccccn12
2. NC(=O)c1ccccc1-c1nc(-c2ccccc2)no1
3. CCC(=O)Nc1ccc(NC(=O)c2cc3ccccc3o2)c(OC)c1

1. 103%
2. 104%
3. 88.2%
